Data credit: patent US20260258115A1

- Test system: RSV prefusion F (preF), subtype B (respiratory syncytial virus, subtype B)
- Test name: BLI, IgG
Catalogue of Kd values

>  <Binder>
ADI-14603 (antibody, V domains shown, also called Ab 131) VH: QVQLVQSGAEVKKPGESLKISCKGSGYTFTNYWIGWVRQMPGKGLEWMGIIYPGDSDTRYSPSFQGQVTISADKSITTAYLQWRVLKASDTAMYYCATMRGSSSHFHHWGQGTLVTVSS VL: DIQVTQSPSSLSASVGDRVTITCRAGQGIGNYLAWYQQKPGKVPKVLIYAASTLQSGVPSRFSGSGSGTEFTLTISSLQPEDVATYYCQKYNNAPYAFGQGTRLEIK

>  <Kd>
30.5 nM

$$$$
>  <Binder>
ADI-14412 (antibody, V domains shown, also called Ab 78) VH: QVQLVQSGAEVKKPGASVKVSCKASGYTFTRYGISWVRQAPGQGLEWMGWISDYNGNTKNAEKFQGRVTMTTDTYTNIAYMELRSLRSDDTAVYYCARDWWITVGGIIAPFDYWGQGTLVTVSS VL: ETTLTQSPGTLSLSPGERATLSCRASQSVSSDYLAWFQQKPGQAPRLLIYGASSRATDIPDRFSGSGSGTDFTLTISRLESEDFAVYYCLHYAGARTFGQGTKVEIK

>  <Kd>
13.4 nM

$$$$
>  <Binder>
ADI-21017 (antibody, V domains shown) VH: QVQLVESGTEVKKPGASVKVSCKASGYTFTNYGITWVRQAPGQGLEWMGCISGYNGNTNYAQNLQGRVTMTTDTSTNTAYMELRSLISDDTAVYYCARDTGLTAAALLDYWGQGTLVTVSS VL: DIVLTQSPLSLPVTLGQPASISCRSSQSLVYSDGNTYLSWFQQRPGQSPRRLIYKVSNRDSGVPDRFGGSGSGTYFTLKISRVEAEDVGIYYCMQAIHWPLTFGGGTKVEIK

>  <Kd>
1.56 nM

$$$$
>  <Binder>
ADI-21061 (antibody, V domains shown) VH: QVQLVQSGAEVKKPGSSVKVSCKASGGTFSNYPISWVRQAPGHGLEWMGRVVPTVGLANYAQNLQGRVTITADTSTNTVYMELRSLRSEDTGLYYCARRAVVDTYAFDIWGQGTLVTVSS VL: QSALIQPASVSGFPGQSITISCTGASSDVGGYNFVSWYQQHPGKAPKLIIYEVTKRPSGVSNRFSGSESGNTASLTISGLQAEDEADYYCSSFRYTSSIVYVFGSGTKVTVL

>  <Kd>
2.76 nM

$$$$
>  <Binder>
ADI-14421 (antibody, V domains shown, also called Ab 87) VH: QVQLVQSGAEVKKPGESLKISCKGSGYNSSINWIGYWIGWVRQMPGKGLEWMGIINPGDSDTRYSPSFQGQVTISVDKSISTAYLQWGSLKASDTAMYYCARRAYRSGWHFDLWGRGTLVTVSS VL: EIVMTQSPATLSVSPGERATLTCRASQSVSSNLAWYQQKPGQAPRLLIYGASTRATGIPARFSGSGSGTQFTLTISSLQSEDFAVYYCQHYNNWPPYTFGQGTKVEIK

>  <Kd>
2.82 nM

$$$$
